Hello, the source for this data is PubChem BioAssay AID1159580, in case you need it.

Please go through the items and note down their normalized growth.
# assay_info: chemical genetic growth profiling, strain panel (AID 1159580);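 also: tested at 20 µM; growth read once vehicle control cultures reached saturation at 30 °C; 1 = growth at the plate median or of vehicle wells; lower values mean less growth of the strain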
# condition_details: S. cerevisiae deletion strains, growth OD, locus YHR200W, strain rpn10, hits give low values
Out of some 5,500 compounds screened, about 2,000 (36%) were called active. Roughly 18% stayed inconclusive and do not appear here. The list shows a part of the results.
Number only, no unit.

Record summary for CC(=O)c1c(O)c(C)c(O)c2c1oc1c(C(C)=O)c(O)c(C)c(O)c12 : reported normalized growth = 0.938

// normalized growth lookup, compound = COc1ccc2c(c1)OCc1c-2oc2cc(OC)ccc12 , result: 1.01

Lab note: measured normalized growth of CCN(CC)CCNC(=O)c1cc(Br)c(N)cc1OC was 0.994

Note to self: normalized growth recorded for CCCCNc1cc(C(=O)O)cc(S(N)(=O)=O)c1Oc1ccccc1 was 0.984

Entry Cc1cc(O)c(C=O)c(O)c1C(=O)O ; normalized growth = 1.02
